Tested on: SW626
Assay: Confirmatory qHTS for gynecologic anti-cancer compounds from libraries of approved drugs and bioactive compounds; also: nearly all actives have a fitted effect of over 55% in size; also: potency is read from the fitted curve at half-maximal effect
Settings: gynecologic cancer cell panel viability, ATPlite luminescence, 48 h; series mostly up to 57.6 µM
Results filed as inconclusive are left out. Calls of active or inactive are those of the source. Calls follow the shape of the dose curve; as a rule, active = well fitted cell-killing curve with a large enough effect; inconclusive = small, poorly fitted or top-dose-only effect, or effect the other way; inactive = no such curve, though single readings can be large or run the other way.
Reported Potency values are given for each entry in this list.

# count of solved cases: 2
> print(dat)
                                  structure   reported.result
1  CC(C)C[C@H](NC(=O)[C@H](CCc1ccccc1)NC(=O)CN1CCOCC1)C(=O)N[C@@H](Cc1ccccc1)C(=O)N[C@@H](CC(C)C)C(=O)[C@@]1(C)CO1  1.09 µM (active)
2  Cc1ccc(C(=O)Nc2ccc(Oc3cc4cnn(C)c4cc3-c3cn[nH]c3)c(F)c2)c(=O)n1-c1ccc(F)cc1  4.32 µM (active)

# lookup: Potency of COc1cc2c(NC3CCN(C(C)C)CC3)nc(C3CCCCC3)nc2cc1OCCCN1CCCC1
10.9 µM (active)

Entry under review: CC(C)n1nc(-c2cc3cc(O)ccc3[nH]2)c2c(N)ncnc21 . Reported Potency?
7.69 µM (active)

Would you kindly share the measured Potency for C=CC(=O)Nc1cc2c(Nc3ccc(F)c(Cl)c3)ncnc2cc1OCCCN1CCOCC1 ?
21.7 µM (active)

----------
Tested on: SW626
Experiment: Confirmatory qHTS for gynecologic anti-cancer compounds from libraries of approved drugs and bioactive compounds; also: nearly all actives have a fitted effect of over 55% in size
Conditions: gynecologic cancer cell panel viability, ATPlite luminescence, 48 h; series mostly up to 57.6 µM
Excerpt: National Center for Advancing Translational Sciences [NCATS] Assay Overview: Chemotherapeutic drug responses vary from cancer to cancer and from patient to patient. […] ATPlite is a luminescence based assay reliant on the conversion of a luciferase substrate to light in the presence of ATP. As a cytotoxic compound will suppress growth and decrease the number of cells, the concentration of ATP will decrease, and less light signal will be detected in the well. […]
Results filed as inconclusive are left out. Activity calls are given as the source filed them. The call rests on the fitted dose curve; in most records, active means well fitted cell-killing curve with a large enough effect; inconclusive means small, poorly fitted or top-dose-only effect, or effect the other way; inactive means no such curve, though single readings can be large or run the other way.
Choose one outcome from this list and give only that: active, inactive

Please review the following examples before continuing.
> print(dat)
                                   compound       cat
1  Cc1cncc2cccc(S(=O)(=O)N3CCCN(C(=O)CN)C[C@@H]3C)c12  inactive
2  CC(Oc1cc(-n2cnc3ccc(CN4CCN(C)CC4)cc32)sc1C(N)=O)c1ccccc1C(F)(F)F (configuration not stated)    active
3  CCN1CCN(Cc2ccc(-c3cc4c(NC(C)c5ccccc5)ncnc4[nH]3)cc2)CC1 (configuration not stated)    active
4  CCN(CC)CCCC(C)Nc1c2ccc(Cl)cc2nc2ccc(OC)cc12 (configuration not stated)    active
5  COC(C)(C)CCn1nc(Nc2c(C)cccc2C)c2cnc(Nc3ccc(OCCN4CCCC4)c(F)c3)nc21    active
6  COc1ccc2cc3[n+](cc2c1OC)CCc1cc2c(cc1-3)OCO2  inactive

Could you check what this test reported for NC(=O)c1cnc(-c2ccc(C3(N)CCC3)cc2)c(-c2ccccc2)c1 ?
active

Called result for CN1C(=O)C(Cc2c[nH]c3ccccc23)NC1=S (configuration not stated)
inactive

Status in this test for Cc1cc(C(=O)N2CCN(c3cccc(Cl)c3)CC2)n(-c2ccccc2)n1 ?
inactive

# outcome recorded in this test, key = c1nc2nc(Nc3ccc(N4CCOCC4)cc3)nc(NC3CCCCC3)c2[nH]1
inactive

Recorded call for CCc1nc(C(N)=O)c(Nc2ccc(N3CCC(N4CCN(C)CC4)CC3)c(OC)c2)nc1NC1CCOCC1 ?
active

Returns: the outcome recorded for O=c1cc(CN2CCOCC2)occ1OCCCCCSc1ccnc2cc(C(F)(F)F)ccc12 in this assay.
inactive
